# Test system: mice bearing PSMA-expressing LNCAP cancer xenografts
# experiment-description: Biodistribution of 68Ga-labeled compounds
# Assay type: in vivo
# protocol-conditions: 1 h post-injection
What Thyroid uptake was measured for each of the following?
Entry rule: numbers only, all in % ID/g.

Exercise: Notebook entry, mice bearing PSMA-expressing LNCAP cancer xenografts assay: Thyroid uptake of O=C([O-])CN1CCN(CC(=O)[O-])CCN(CC(=O)NCCCC[C@H](NC(=O)CNC(=O)CCCc2ccc([N+](=O)[O-])cc2)C(=O)NC[C@H]2CC[C@H](C(=O)N[C@@H](Cc3ccc4ccccc4c3)C(=O)NCCCC[C@H](NC(=O)N[C@@H](CCC(=O)O)C(=O)O)C(=O)O)CC2)CCN(CC(=O)[O-])CC1.[68Ga+3] [^68Ga-HTK03089] = ?
Key: 2.32

Exercise: Notebook entry, mice bearing PSMA-expressing LNCAP cancer xenografts assay: Thyroid uptake of COc1ccc(CCCC(=O)NCC(=O)N[C@@H](CCCCNC(=O)CN2CCN(CC(=O)[O-])CCN(CC(=O)[O-])CCN(CC(=O)[O-])CC2)C(=O)NC[C@H]2CC[C@H](C(=O)N[C@@H](Cc3ccc4ccccc4c3)C(=O)NCCCC[C@H](NC(=O)N[C@@H](CCC(=O)O)C(=O)O)C(=O)O)CC2)cc1.[68Ga+3] [^68Ga-HTK03086] = ?
Key: 2.24

Exercise: Notebook entry, mice bearing PSMA-expressing LNCAP cancer xenografts assay: Thyroid uptake of O=C([O-])CN1CCN(CC(=O)[O-])CCN(CC(=O)NCCCC[C@H](NC(=O)CNC(=O)CCCc2ccc(Br)cc2)C(=O)NC[C@H]2CC[C@H](C(=O)N[C@@H](Cc3ccc4ccccc4c3)C(=O)NCCCC[C@H](NC(=O)N[C@@H](CCC(=O)O)C(=O)O)C(=O)O)CC2)CCN(CC(=O)[O-])CC1.[68Ga+3] [^68Ga-HTK03058] = ?
Key: 4.95

* * *

# Test system: mice bearing PSMA-expressing LNCAP cancer xenografts
# experiment-description: Biodistribution of 68Ga-labeled compounds
# Type: in vivo
# protocol-conditions: 1 h post-injection
# Experimental: Imaging and biodistribution experiments were performed using NODSCID 1L2RyKO male mice. Mice were anesthetized by inhalation with 2% isoflurane in oxygen, and implanted subcutaneously with 1×10^7 LNCaP cells behind left shoulder. […] For biodistribution studies, the mice were injected with the radiotracer as described above. […] The collected organs/tissues were weighed and counted using an automatic gamma counter. […]
What Fat uptake was measured for each of the following?
Entry rule: numbers only, all in % ID/g.

Exercise: Notebook entry, mice bearing PSMA-expressing LNCAP cancer xenografts assay: Fat uptake of O=C([O-])CN1CCN(CC(=O)[O-])CCN(CC(=O)NCC2CCC(C(=O)NC(Cc3c4ccccc4cc4ccccc34)C(=O)NCCCCC(NC(=O)NC(CCC(=O)O)C(=O)O)C(=O)O)CC2)CCN(CC(=O)[O-])CC1.[68Ga+3] (centres unmarked) [^68Ga-HTK03041] = ?
Key: 2.06

Exercise: Notebook entry, mice bearing PSMA-expressing LNCAP cancer xenografts assay: Fat uptake of COc1ccc(CCCC(=O)NCC(=O)N[C@@H](CCCCNC(=O)CN2CCN(CC(=O)[O-])CCN(CC(=O)[O-])CCN(CC(=O)[O-])CC2)C(=O)NC[C@H]2CC[C@H](C(=O)N[C@@H](Cc3ccc4ccccc4c3)C(=O)NCCCC[C@H](NC(=O)N[C@@H](CCC(=O)O)C(=O)O)C(=O)O)CC2)cc1.[68Ga+3] [^68Ga-HTK03086] = ?
Key: 1.37

Exercise: Notebook entry, mice bearing PSMA-expressing LNCAP cancer xenografts assay: Fat uptake of O=C([O-])CN1CCN(CC(=O)[O-])CCN(CC(=O)NCCCC[C@H](NC(=O)CNC(=O)CCc2ccccc2)C(=O)NC[C@H]2CC[C@H](C(=O)N[C@@H](Cc3ccc4ccccc4c3)C(=O)NCCCC[C@H](NC(=O)N[C@@H](CCC(=O)O)C(=O)O)C(=O)O)CC2)CCN(CC(=O)[O-])CC1.[68Ga+3] [^68Ga-HTK03082] = ?
Key: 0.61

Exercise: Notebook entry, mice bearing PSMA-expressing LNCAP cancer xenografts assay: Fat uptake of O=C([O-])CN1CCN(CC(=O)[O-])CCN(CC(=O)NCCCC[C@H](NC(=O)CNC(=O)CCCc2ccc([N+](=O)[O-])cc2)C(=O)NC[C@H]2CC[C@H](C(=O)N[C@@H](Cc3ccc4ccccc4c3)C(=O)NCCCC[C@H](NC(=O)N[C@@H](CCC(=O)O)C(=O)O)C(=O)O)CC2)CCN(CC(=O)[O-])CC1.[68Ga+3] [^68Ga-HTK03089] = ?
Key: 2.14

Exercise: Notebook entry, mice bearing PSMA-expressing LNCAP cancer xenografts assay: Fat uptake of Nc1ccc(CCCC(=O)NCC(=O)N[C@@H](CCCCNC(=O)CN2CCN(CC(=O)[O-])CCN(CC(=O)[O-])CCN(CC(=O)[O-])CC2)C(=O)NC[C@H]2CC[C@H](C(=O)N[C@@H](Cc3ccc4ccccc4c3)C(=O)NCCCC[C@H](NC(=O)N[C@@H](CCC(=O)O)C(=O)O)C(=O)O)CC2)cc1.[68Ga+3] [^68Ga-HTK03087] = ?
Key: 0.77

Exercise: Notebook entry, mice bearing PSMA-expressing LNCAP cancer xenografts assay: Fat uptake of CCCCCCC(NC(=O)C1CCC(CNC(=O)CN2CCN(CC(=O)[O-])CCN(CC(=O)[O-])CCN(CC(=O)[O-])CC2)CC1)C(=O)NCCCCC(NC(=O)NC(CCC(=O)O)C(=O)O)C(=O)O.[68Ga+3] (centres unmarked) [^68Ga-HTK03026] = ?
Key: 0.45

Exercise: Notebook entry, mice bearing PSMA-expressing LNCAP cancer xenografts assay: Fat uptake of O=C([O-])CN1CCN(CC(=O)[O-])CCN(CC(=O)NCCCC[C@H](NC(=O)CNC(=O)CCCc2ccc(F)cc2)C(=O)NC[C@H]2CC[C@H](C(=O)N[C@@H](Cc3ccc4ccccc4c3)C(=O)NCCCC[C@H](NC(=O)N[C@@H](CCC(=O)O)C(=O)O)C(=O)O)CC2)CCN(CC(=O)[O-])CC1.[68Ga+3] [^68Ga-HTK03085] = ?
Key: 1.36

Exercise: Notebook entry, mice bearing PSMA-expressing LNCAP cancer xenografts assay: Fat uptake of O=C([O-])CN1CCN(CC(=O)[O-])CCN(CC(=O)NCCCC[C@H](NC(=O)CNC(=O)CCCc2ccc(Br)cc2)C(=O)NC[C@H]2CC[C@H](C(=O)N[C@@H](Cc3ccc4ccccc4c3)C(=O)NCCCC[C@H](NC(=O)N[C@@H](CCC(=O)O)C(=O)O)C(=O)O)CC2)CCN(CC(=O)[O-])CC1.[68Ga+3] [^68Ga-HTK03058] = ?
Key: 2.13

Exercise: Notebook entry, mice bearing PSMA-expressing LNCAP cancer xenografts assay: Fat uptake of O=C([O-])CN1CCN(CC(=O)[O-])CCN(CC(=O)NCC2CCC(C(=O)NC(Cc3ccc4ccc5cccc6ccc3c4c56)C(=O)NCCCCC(NC(=O)NC(CCC(=O)O)C(=O)O)C(=O)O)CC2)CCN(CC(=O)[O-])CC1.[68Ga+3] (centres unmarked) [^68Ga-HTK03029] = ?
Key: 1.57

Exercise: Notebook entry, mice bearing PSMA-expressing LNCAP cancer xenografts assay: Fat uptake of O=C([O-])CN1CCN(CC(=O)[O-])CCN(CC(=O)NCCCC[C@H](NC(=O)CNC(=O)CCCc2ccc(Cl)cc2)C(=O)NC[C@H]2CC[C@H](C(=O)N[C@@H](Cc3ccc4ccccc4c3)C(=O)NCCCC[C@H](NC(=O)N[C@@H](CCC(=O)O)C(=O)O)C(=O)O)CC2)CCN(CC(=O)[O-])CC1.[68Ga+3] [^68Ga-HTK03055] = ?
Key: 2.20

Exercise: Notebook entry, mice bearing PSMA-expressing LNCAP cancer xenografts assay: Fat uptake of Cc1ccc(CCCC(=O)NCC(=O)N[C@@H](CCCCNC(=O)CN2CCN(CC(=O)[O-])CCN(CC(=O)[O-])CCN(CC(=O)[O-])CC2)C(=O)NC[C@H]2CC[C@H](C(=O)N[C@@H](Cc3ccc4ccccc4c3)C(=O)NCCCC[C@H](NC(=O)N[C@@H](CCC(=O)O)C(=O)O)C(=O)O)CC2)cc1.[68Ga+3] [^68Ga-HTK03090] = ?
Key: 1.87

Exercise: Notebook entry, mice bearing PSMA-expressing LNCAP cancer xenografts assay: Fat uptake of O=C([O-])CN1CCN(CC(=O)[O-])CCN(CC(=O)NCCCC[C@H](NC(=O)CNC(=O)CCCc2ccccc2)C(=O)NC[C@H]2CC[C@H](C(=O)N[C@@H](Cc3ccc4ccccc4c3)C(=O)NCCCC[C@H](NC(=O)N[C@@H](CCC(=O)O)C(=O)O)C(=O)O)CC2)CCN(CC(=O)[O-])CC1.[68Ga+3] [^68Ga-HTK03056] = ?
Key: 0.87

Exercise: Notebook entry, mice bearing PSMA-expressing LNCAP cancer xenografts assay: Fat uptake of O=C([O-])CN1CCN(CC(=O)[O-])CCN(CC(=O)NCCCC[C@H](NC(=O)CNC(=O)CCCc2ccc(I)cc2)C(=O)NC[C@H]2CC[C@H](C(=O)N[C@@H](Cc3ccc4ccccc4c3)C(=O)NCCCC[C@H](NC(=O)N[C@@H](CCC(=O)O)C(=O)O)C(=O)O)CC2)CCN(CC(=O)[O-])CC1.[68Ga+3] [^68Ga-HTK03024] = ?
Key: 1.83

Exercise: Notebook entry, mice bearing PSMA-expressing LNCAP cancer xenografts assay: Fat uptake of O=C([O-])CN1CCN(CC(=O)[O-])CCN(CC(=O)NCC2CCC(C(=O)NC(Cc3ccc4cc5ccccc5cc4c3)C(=O)NCCCCC(NC(=O)NC(CCC(=O)O)C(=O)O)C(=O)O)CC2)CCN(CC(=O)[O-])CC1.[68Ga+3] (centres unmarked) [^68Ga-HTK03027] = ?
Key: 1.03
